Where these numbers come from: patent US10882856B2

molecular target: IDO1 (Homo sapiens, UniProt P14902); experiment: IDO1 enzymatic assay; type: biochemical; set-up: His tag (N); made in house; host or cells: E. coli; settings: read-out: Enzyme IC50 IDO1
Sequence (P14902 whole entry): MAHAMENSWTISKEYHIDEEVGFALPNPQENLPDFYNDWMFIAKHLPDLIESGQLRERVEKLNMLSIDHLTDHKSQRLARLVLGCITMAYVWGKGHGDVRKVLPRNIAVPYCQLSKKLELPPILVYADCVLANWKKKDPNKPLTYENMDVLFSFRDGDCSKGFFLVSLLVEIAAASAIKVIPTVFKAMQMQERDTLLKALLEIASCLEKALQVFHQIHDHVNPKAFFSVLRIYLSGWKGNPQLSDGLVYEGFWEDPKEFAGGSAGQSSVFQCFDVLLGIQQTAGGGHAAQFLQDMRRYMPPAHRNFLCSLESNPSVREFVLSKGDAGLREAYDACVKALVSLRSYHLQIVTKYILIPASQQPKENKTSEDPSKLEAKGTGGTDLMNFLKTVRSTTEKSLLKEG
Cut-off 30 nM on IC50: below means fulfilled, at or above means not fulfilled.

>>> label_class("Oc1ccc([C@H]2CC[C@H](C(O)c3c(C4CC4)ccc4cncn34)CC2)cc1 (single isomer, unassigned) [Example D106a]")
"fulfilled"
>>> label_class("O[C@H](c1cc(Cl)cc2cncn12)[C@H]1CC[C@H](c2cccc3ccccc32)CC1 (single isomer, unassigned) [Example E103a]")
"fulfilled"
>>> label_class("OC(c1c(C2CC2)ccc2cncn12)C1CCN(c2ccc(Cl)cc2)CC1 (stereo not shown)")
"not fulfilled"

Hello, is IC50 of the following compound strictly smaller than 30 nM? OC(c1c(C2CC2)ccc2cncn12)[C@H]1CC[C@H](c2ccc(OC3CCOCC3)cc2)CC1 (single isomer, unassigned) [Example D114b] not fulfilled

Hello, is IC50 of the following compound strictly smaller than 30 nM? Oc1ccccc1C1CCC(C(O)c2c(C3CC3)ccc3cncn23)CC1 (stereo not shown) not fulfilled

Hello, is IC50 of the following compound strictly smaller than 30 nM? OC(c1c(C2CC2)ccc2cncn12)C1CCC(c2ccc3ccccc3c2)CC1 (stereo not shown) not fulfilled

Hello, is IC50 of the following compound strictly smaller than 30 nM? Oc1ccc(C2CCC(C(O)c3c(C4CC4)ccn4cncc34)CC2)cc1 (racemic) not fulfilled

Hello, is IC50 of the following compound strictly smaller than 30 nM? COc1ccc(C2CCC(C(O)c3c(C4CC4)ccc4cncn34)CC2)cc1Cl (stereo not shown) not fulfilled

Hello, is IC50 of the following compound strictly smaller than 30 nM? OC(c1c(C2CC2)ccc2cncn12)C1CCC(c2ccc(F)c(Cl)c2)CC1 (stereo not shown) not fulfilled

Hello, is IC50 of the following compound strictly smaller than 30 nM? COc1ccc([C@H]2CC[C@H](C(O)c3c(C4CC4)ccc4cncn34)CC2)c2ccccc12 (single isomer, unassigned) [Example D139a] not fulfilled

Hello, is IC50 of the following compound strictly smaller than 30 nM? COc1ccc([C@H]2CC[C@H](C(O)c3c(C4CC4)ccc4cncn34)CC2)c(F)c1 (single isomer, unassigned) [Example D146a] fulfilled
